Quick list: apparent KD of MS2 coat protein per entry.
System: MS2 coat protein
Experimental Details: apparent KD of MS2 coat protein; designed switch direction (-1 OFF switch, 1 ON switch): 1; higher = weaker reporter binding
Assay Setup: input ligand: FMN 200 uM
Experimental Readout: apparent KD of MS2 coat protein (nM)

GAAUAGUUGAGAGGAUAUCUAUUAUUGUAGGAUAGAGAAGGUUUUAACAUGAGGAUCACCCAUGUAGGACUAUAUAUGUGAAUA [Parity 99 - Jieux - Same State NG 1] (Eterna round: R96, puzzle: Same State NG 1) ... 14.2
GGAUUGGAGGCAGGAUAUGGGCUCAGAACAUGAGGAUCACCCAUGUAAAACGGCGCGAUGCGCCACCAGAAGGGCCUCCGAUCG [Tiaonbira] (Eterna round: R96, puzzle: Same State NG 2) ... 12.8
UUGCGGGCUUGAGGAUAUUGAGUACAUAUGUUUAACAUGAGGAUCACCCAUGUGGGUUGCGGUAUCGAGAAGGUAACUUCCUUC [salish99_SSNG2_r04_810] (Eterna round: R96, puzzle: Same State NG 2) ... 190
GCUAGGAAUUAAGCCAACAUGAGGAUCACCCAUGUAUGUUGGUAGGAUAUCGUUUGCUUUGCAAACGAGAAGGGCUAACCUAGC [JL SSNG3 1.25] (Eterna round: R96, puzzle: Same State NG 3) ... 51
GUGGCCCAGGCACAGGAUAUGUUUCUCGUAACAUGAGGAUCACCCAUGUGCCUAUGAGAUUUAAUGCAGAAGGGUGCACGCCACG [Atiinbe] (Eterna round: R96, puzzle: Same State 2) ... 18.2

The origin of these recorded values is the supplement of paper PMC9170038.
